Test system: RXF 393 renal
Test: NCI tumour cell line growth inhibition, 48 h
Respond with TRUE for TGI values of 20 µM and above, FALSE for values below.

Examples with answers:
[
  {
    "COMPOUND": "Oc1cc2c(cc1C(c1ccc3c(c1)OCO3)N1CCN(C(c3ccc4c(c3)OCO4)c3cc4c(cc3O)OCO4)CC1)OCO2 (configuration not stated)",
    "ASSIGNED_CLASS": "TRUE"
  },
  {
    "COMPOUND": "CN(C)CCC(/C=C/c1ccccc1)=N\\Nc1ccc(Cl)cc1",
    "ASSIGNED_CLASS": "TRUE"
  },
  {
    "COMPOUND": "Nc1cc(N)cc(Cc2ccccc2)c1",
    "ASSIGNED_CLASS": "TRUE"
  },
  {
    "COMPOUND": "OCC#CCCCCOCC#Cc1ccccc1C#CCOCCCCC#CCO",
    "ASSIGNED_CLASS": "TRUE"
  },
  {
    "COMPOUND": "N#CCCN(CCCN(C(=O)Nc1ccc(NC(=O)N(CCCN(CCC#N)C(N)=O)c2ccccc2)cc1)c1ccccc1)C(N)=O",
    "ASSIGNED_CLASS": "TRUE"
  },
  {
    "COMPOUND": "Nc1ncc(N)c(NCC2(CO)CC(CCc3ccccc3)C2)n1 (configuration not stated)",
    "ASSIGNED_CLASS": "TRUE"
  },
  {
    "COMPOUND": "O=C(/N=C1/OC(CN2CCOCC2)CN1C(=O)Nc1ccccc1)Nc1ccccc1 (configuration not stated)",
    "ASSIGNED_CLASS": "TRUE"
  },
  {
    "COMPOUND": "Cc1cccc(Cl)c1NC(=O)c1cccc([N+](=O)[O-])c1O",
    "ASSIGNED_CLASS": "TRUE"
  }
]

Here's the next entry for you.
Is the recorded value of TGI equal to or greater than 20 µM for this compound? `CN(C(=O)c1cc2c(s1)sc1c(=O)n(C)c3ccccc3c12)c1ccccc1`
TRUE

----------
System: M14 melanoma
Test: NCI tumour cell line growth inhibition, 48 h
Examples of molecules with documented TGI follow.

Reference set, count: 6
[
  {
    "MOLECULE": "COC(=O)C1=C(C(=O)OC)C(OO)(c2ccccc2)OC1=O (stereo not given)",
    "READOUT_VALUE": "> 100 µM"
  },
  {
    "MOLECULE": "OCc1ncc(-c2ccccc2)s1",
    "READOUT_VALUE": "> 100 µM"
  },
  {
    "MOLECULE": "CCCC(=O)O[C@]1(C)CC[C@@H]2[C@H]3[C@@H]1[C@@H]1C/C(C)=C\\CC[C@](C)(OC(=O)[C@@H]2C)[C@H]3O1",
    "READOUT_VALUE": "> 100 µM"
  },
  {
    "MOLECULE": "N=C1N=C(N)S/C1=C\\c1ccc2ncccc2c1",
    "READOUT_VALUE": "> 25 µM"
  },
  {
    "MOLECULE": "Cn1nc(S(N)(=O)=O)s/c1=N/S(=O)(=O)c1ccc(N)cc1",
    "READOUT_VALUE": "> 100 µM"
  },
  {
    "MOLECULE": "CC1CN=C(NS(=O)(=O)c2cc(C(=O)Nc3ccccc3)c(Cl)cc2S)NN1 (stereo not given)",
    "READOUT_VALUE": "> 100 µM"
  }
]

Returns the measured TGI for the input molecule. Input: `N#CCCN(CCCN(C(=O)Nc1ccc(NC(=O)N(CCCN(CCC#N)C(N)=O)c2ccccc2)cc1)c1ccccc1)C(N)=O`
> 100 µM

Quick one: Cc1cc(Cl)cc2c1NC(=O)C2(O)CC(=O)c1ccc(F)cc1 (stereo not given)
> 100 µM

Quick one: `CC(=O)Oc1ccccc1C(=O)NCCC[Se]C#N`
5.38 µM

Quick one: `CN(N=O)C(=O)Nc1ccc(C(=O)O)cc1`
> 100 µM
